Where do the numbers come from? From PubChem BioAssay AID2060899.

- Test system: 565726-208-R1-J5-PDC complex spheroids, growth inhibition
- Assay summary: Anticancer human tumor 565726-208-R1-J5-PDC patient-derived pancreatic adenocarcinoma cell line growth inhibition [RAS]
- Run conditions: second compound 0.03 µM; first compound 0.0316 µM; hits give low values
Mark TRUE only when viability, T/C stays strictly below 30%. Values equal to the cut-off are FALSE.

Input: Hello, I'm reviewing records and need to know if viability, T/C of CCC(CC)c1cc(NC2CCC(N)C2)n2nccc2n1 (stereo unspecified) + CCn1c(-c2cc(N3CCN(C)CC3)cnc2C(C)OC)c2c3cc(ccc31)-c1csc(n1)CC(NC(=O)C1CC1C)C(=O)N1CCCC(N1)C(=O)OCC(C)(C)C2 is below 30%. Could you check?
Output: FALSE

Input: Further, for Cc1nc(N2CCC3(CC2)COC(C)C3N)c(CO)nc1Sc1ccnc(N)c1Cl (stereo unspecified) + CCn1c(-c2cccnc2C(C)OC)c2c3cc(ccc31)N1CCOC(CC(NC(=O)C(C(C)C)N(C)C(=O)C3(F)CCN(C(=O)C#CC(C)(C)N(C)C)CC3)C(=O)N3CCCC(N3)C(=O)OCC(C)(C)C2)C1 ?
Output: FALSE

Input: Further, for Nc1ccn(C2OC(CO)C(O)C2(F)F)c(=O)n1 (stereo unspecified) + CCn1c(-c2cccnc2C(C)OC)c2c3cc(ccc31)N1CCOC(CC(NC(=O)C(C(C)C)N(C)C(=O)C3(F)CCN(C(=O)C#CC(C)(C)N(C)C)CC3)C(=O)N3CCCC(N3)C(=O)OCC(C)(C)C2)C1 ?
Output: FALSE

Input: Further, for C[C@@H](NC(=O)c1ncnc(N)c1Cl)c1ncc(C(=O)Nc2cc(C(F)(F)F)c(Cl)cn2)s1 + CCn1c(-c2cc(N3CCN(C)CC3)cnc2C(C)OC)c2c3cc(ccc31)-c1csc(n1)CC(NC(=O)C1CC1C)C(=O)N1CCCC(N1)C(=O)OCC(C)(C)C2 ?
Output: FALSE

Input: Further, for Nc1ccn(C2OC(CO)C(O)C2(F)F)c(=O)n1 (stereo unspecified) + CCn1c(-c2cc(N3CCN(C)CC3)cnc2C(C)OC)c2c3cc(ccc31)-c1csc(n1)CC(NC(=O)C1CC1C)C(=O)N1CCCC(N1)C(=O)OCC(C)(C)C2 ?
Output: TRUE

====

- Test system: 565726-208-R1-J5-PDC complex spheroids, growth inhibition
- Assay summary: Anticancer human tumor 565726-208-R1-J5-PDC cell line growth inhibition [RAS];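 note: spheroids exposed to compounds for seven days before readout; 100% = DMSO vehicle control viability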
- Run conditions: second compound 0.00949 µM; first compound 0.03 µM; hits give low values
Entries and their viability, T/C values follow.
Response body: numeric value in %, unit text excluded.

The examples below pair each entry with its known result.
CC1(C)CCC(Nc2ncc(C(F)(F)F)c(-c3c[nH]c4c(P(C)(C)=O)c(C#N)ccc34)n2)CN1 (centres undefined) + CCn1c(-c2cc(N3CCN(C)CC3)cnc2C(C)OC)c2c3cc(ccc31)-c1csc(n1)CC(NC(=O)C1CC1C)C(=O)N1CCCC(N1)C(=O)OCC(C)(C)C2 ... 30.7
CC1(C)CCC(Nc2ncc(C(F)(F)F)c(-c3c[nH]c4c(P(C)(C)=O)c(C#N)ccc34)n2)CN1 (centres undefined) + CCn1c(-c2cccnc2C(C)OC)c2c3cc(ccc31)N1CCOC(CC(NC(=O)C(C(C)C)N(C)C(=O)C3(F)CCN(C(=O)C#CC(C)(C)N(C)C)CC3)C(=O)N3CCCC(N3)C(=O)OCC(C)(C)C2)C1 ... 27.9
CCc1c2c(nc3ccc(O)cc13)-c1cc3c(c(=O)n1C2)COC(=O)[C@]3(O)CC + CCn1c(-c2cccnc2C(C)OC)c2c3cc(ccc31)N1CCOC(CC(NC(=O)C(C(C)C)N(C)C(=O)C3(F)CCN(C(=O)C#CC(C)(C)N(C)C)CC3)C(=O)N3CCCC(N3)C(=O)OCC(C)(C)C2)C1 ... 13.2

Continue with the compound presented below.
Input: State the recorded viability, T/C for this entry: CCc1c2c(nc3ccc(O)cc13)-c1cc3c(c(=O)n1C2)COC(=O)[C@]3(O)CC + CCn1c(-c2cc(N3CCN(C)CC3)cnc2C(C)OC)c2c3cc(ccc31)-c1csc(n1)CC(NC(=O)C1CC1C)C(=O)N1CCCC(N1)C(=O)OCC(C)(C)C2
Output: 16

====

- System: 565726-208-R1-J5-PDC complex spheroids, growth inhibition
- Assay summary: Anticancer human tumor 565726-208-R1-J5-PDC cell line growth inhibition [RAS];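 note: spheroids exposed to compounds for seven days before readout; 100% = DMSO vehicle control viability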
- Run conditions: second compound 1 µM; first compound 0.316 µM; hits give low values
Measurement kind: viability, T/C (%)
Response body: numeric value in %, unit text excluded.

The examples below pair each entry with its known result.
CCN1CCN(Cc2ccc(Nc3ncc(F)c(-c4cc(F)c5nc(C)n(C(C)C)c5c4)n3)nc2)CC1 + C#Cc1c(F)ccc2cc(O)cc(-c3ncc4c(N5CC6CCC(C5)N6)nc(OCC56CCCN5CC(F)C6)nc4c3F)c12 ... 46.8
CC(=O)OC12COC1CC(O)C1(C)C(=O)C(O)C3=C(C)C(OC(=O)C(O)C(NC(=O)OC(C)(C)C)c4ccccc4)CC(O)(C(OC(=O)c4ccccc4)C21)C3(C)C (centres undefined) + C#Cc1c(F)ccc2cc(O)cc(-c3ncc4c(N5CC6CCC(C5)N6)nc(OCC56CCCN5CC(F)C6)nc4c3F)c12 ... 14.5
O=C(c1ccc(F)c(F)c1Nc1ccc(I)cc1F)N1CC(O)([C@@H]2CCCCN2)C1 + C#Cc1c(F)ccc2cc(O)cc(-c3ncc4c(N5CC6CCC(C5)N6)nc(OCC56CCCN5CC(F)C6)nc4c3F)c12 ... 58

Input: State the recorded viability, T/C for this entry: CC1(O)CCCC1n1c(=O)c(C(F)F)cc2cnc(NC3CCN(S(C)(=O)=O)CC3)nc21 (centres undefined) + C#Cc1c(F)ccc2cc(O)cc(-c3ncc4c(N5CC6CCC(C5)N6)nc(OCC56CCCN5CC(F)C6)nc4c3F)c12
Output: 59.7

====

- Test system: 565726-208-R1-J5-PDC complex spheroids, growth inhibition
- Assay summary: Anticancer human tumor 565726-208-R1-J5-PDC cell line growth inhibition [RAS];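 note: spheroids exposed to compounds for seven days before readout; 100% = DMSO vehicle control viability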
- Run conditions: second compound 1 µM; first compound 0.316 µM; hits give low values
Mark y only when viability, T/C stays strictly below 80%. Values equal to the cut-off are n.

Some solved entries appear below for comparison.
Cc1nc(N2CCC3(CC2)COC(C)C3N)c(CO)nc1Sc1ccnc(N)c1Cl (configuration not stated) + C#Cc1c(F)ccc2cc(O)cc(-c3ncc4c(N5CC6CCC(C5)N6)nc(OCC56CCCN5CC(F)C6)nc4c3F)c12 ... y
C[C@@H](NC(=O)c1ncnc(N)c1Cl)c1ncc(C(=O)Nc2cc(C(F)(F)F)c(Cl)cn2)s1 + C#Cc1c(F)ccc2cc(O)cc(-c3ncc4c(N5CC6CCC(C5)N6)nc(OCC56CCCN5CC(F)C6)nc4c3F)c12 ... n
CC(Nc1ccc2c(c1)OCCn1cc(N3C(=O)OCC3C(F)F)nc1-2)C(N)=O (configuration not stated) + C#Cc1c(F)ccc2cc(O)cc(-c3ncc4c(N5CC6CCC(C5)N6)nc(OCC56CCCN5CC(F)C6)nc4c3F)c12 ... y
CCC(CC)c1cc(NC2CCC(N)C2)n2nccc2n1 (configuration not stated) + C#Cc1c(F)ccc2cc(O)cc(-c3ncc4c(N5CC6CCC(C5)N6)nc(OCC56CCCN5CC(F)C6)nc4c3F)c12 ... n
O=C(c1ccc(F)c(F)c1Nc1ccc(I)cc1F)N1CC(O)([C@@H]2CCCCN2)C1 + C=CC(=O)N1CCN(c2nc(OCC3CCCN3C)nc3c(F)c(-c4nc(N)cc(C)c4C(F)(F)F)c(Cl)cc23)C(C)C1 ... y

# next compound below
Input: Hello, I'm reviewing records and need to know if viability, T/C of C=CC(=O)Nc1cc(Nc2nccc(-c3cn(C)c4ccccc34)n2)c(OC)cc1N(C)CCN(C)C + C#Cc1c(F)ccc2cc(O)cc(-c3ncc4c(N5CC6CCC(C5)N6)nc(OCC56CCCN5CC(F)C6)nc4c3F)c12 is below 80%. Could you check?
Output: n

====

- Test system: 565726-208-R1-J5-PDC complex spheroids, growth inhibition
- Assay summary: Anticancer human tumor 565726-208-R1-J5-PDC cell line growth inhibition [RAS];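 note: spheroids exposed to compounds for seven days before readout; 100% = DMSO vehicle control viability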
- Run conditions: compound 0.0316 µM; hits give low values
Measurement kind: viability, T/C

C#Cc1c(F)ccc2cc(O)cc(-c3ncc4c(N5CC6CCC(C5)N6)nc(OCC56CCCN5CC(F)C6)nc4c3F)c12 (centres undefined) ... 104% [middle of 8 runs]

Input: State the recorded viability, T/C for this entry: Nc1ccn(C2OC(CO)C(O)C2(F)F)c(=O)n1 (centres undefined)
Output: 70.9% [middle of 4 runs]

Input: Further, for CC(C)NCC(C(=O)N1CCN(c2ncnc3c2C(C)CC3O)CC1)c1ccc(Cl)cc1 (centres undefined) ?
Output: 97.9% [middle of 4 runs]

Input: Further, for O=C(c1ccc(F)c(F)c1Nc1ccc(I)cc1F)N1CC(O)([C@@H]2CCCCN2)C1 ?
Output: 69.5% [middle of 4 runs]

Input: Further, for C=CC(=O)Nc1cc(Nc2nccc(-c3cn(C)c4ccccc34)n2)c(OC)cc1N(C)CCN(C)C ?
Output: 92.9% [middle of 4 runs]

Input: Further, for Cc1nc(N2CCC3(CC2)COC(C)C3N)c(CO)nc1Sc1ccnc(N)c1Cl (centres undefined) ?
Output: 106% [middle of 4 runs]

Input: Further, for CC(C)n1nc(-c2ccc3oc(N)nc3c2)c2c(N)ncnc21 ?
Output: 54.3% [middle of 4 runs]

Input: Further, for CCN1CCN(Cc2ccc(Nc3ncc(F)c(-c4cc(F)c5nc(C)n(C(C)C)c5c4)n3)nc2)CC1 ?
Output: 81.5% [middle of 4 runs]

Input: Further, for CC(Nc1ccc2c(c1)OCCn1cc(N3C(=O)OCC3C(F)F)nc1-2)C(N)=O (centres undefined) ?
Output: 94.9% [middle of 4 runs]
